These measurements were taken from PubChem BioAssay.

- Test summary: antimalarial activity against Dd2 strain (AID 2302)
- Recorded conditions: P. falciparum Dd2 in RBCs, LDH growth readout, 72 h; at 2 µM
The source made the active and inactive calls.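 Rule for the calls: active = growth inhibition above 50% at the single 2 µM test dose, taken to imply half-maximal potency below 2 µM; inactive = the rest.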
The reply should be one of these categories: active, inactive

Solved cases below.
- Compound: "O=C(Nc1cccc(C(F)(F)F)c1)N1CCOC(CCN2CCC3(CCc4ccccc43)CC2)(c2ccc(Cl)c(Cl)c2)C1 (stereo not drawn)"
  Group label: "active"
- Compound: "O=C(/C=C/c1ccc(Cl)c(Cl)c1)NCCCCCN1CC[C@H](NC(=O)c2ccc3c(c2)OCO3)C1"
  Group label: "inactive"
- Compound: "CN(C)C(=O)C(CC(=O)NCc1ccccc1Cl)N(C)C (stereo not drawn) (tested in a mixture with another compound)"
  Group label: "inactive"
- Compound: "CC(C)CNCc1cccc(-c2cccc(CNCCCN3CCN(C)CC3)c2)c1"
  Group label: "inactive"
- Compound: "CC(C)c1ccc(CN2CCCCC(NC(=O)c3cc(-c4ccccc4Cl)cs3)C2)cc1 (stereo not drawn)"
  Group label: "active"

input: // param item: CC(CCCCC(=O)Nc1ccc(C(F)(F)F)cc1)NCC(O)c1cccc(Cl)c1 (stereo not drawn) ; yields the recorded call
output: active

input: Try the compound CN1CCN(c2cccc(-c3nnc(-c4cccc(OCC(=O)NCc5ccc(C(F)(F)F)cc5)c4)o3)c2)CC1
output: active

input: CC(=O)N/N=C/[C@H](CCc1ccccc1)NC(=O)[C@H](CC(C)C)NC(=O)c1ccc(OCCN2CCOCC2)cc1 ?
output: active
